- System: BDF1 mice, P388 leukemia ip, median survival T/C
- PROCEDURE_SUMMARY: NCI In Vivo Anticancer Drug Screen. Data for tumor model P388 Leukemia (intraperitoneal) in B6D2F1 (BDF1) mice
- EXPERIMENTAL_SETUP: endpoint: median survival time; dose: 100.0 mg/kg/injection; schedule: Q01DX009 (ip); vehicle: other
Inconclusive results and toxic doses are left out. The calls were made as follows: active = survival T/C of 150% or more; inactive = T/C below 125% in these data.
Possible outcomes: TRUE = active, FALSE = inactive

                      smiles_representation  class_assignment
0  COc1cc2c[n+](C)c3c4cc(OC)c(OC)cc4ccc3c2cc1OC              TRUE
1                 C1CCC2(CC1)SSC1(CCCCC1)S2             FALSE
2  CC(=O)OCC(=O)[C@@]1(O)CC[C@H]2[C@@H]3C[C@H](F)C4=CC(=O)CC[C@]4(C)[C@H]3C(=O)C[C@@]21C             FALSE
3       CCN(CC)CCCNc1ncnc2onc(-c3ccccc3)c12             FALSE
4                        CSc1ccccc1C(C)(C)O             FALSE
5                          CCCCCCC(O)CCCCCC             FALSE

###

- Tested on: BDF1 mice, P388 leukemia ip, median survival T/C
- PROCEDURE_SUMMARY: NCI In Vivo Anticancer Drug Screen. Data for tumor model P388 Leukemia (intraperitoneal) in B6D2F1 (BDF1) mice
- EXPERIMENTAL_SETUP: endpoint: median survival time; dose: 0.78 mg/kg/injection; schedule: Q01DX009 (ip); vehicle: water; higher = longer survival
Inconclusive results and toxic doses are left out.

COMPOUND	T/C
C[n+]1c(-c2ccc(Cl)c(Cl)c2)c2cc(N)ccc2c2ccccc21	107 % of control
CC(C)=CCC/C(C)=C/CN1C(=O)C=CC1=O	100 % of control
COc1cccc2c1C(=O)c1c(O)c3c(c(O)c1C2=O)C[C@@](O)(/C(C)=N/NC(=O)c1ccc(-c2ccccc2)cc1)C[C@@H]3OC1CC(N)C(O)C(C)O1 (some centres undefined)	107 % of control
O=C(CI)Nc1ccc(O)c2ccccc12	97 % of control

###

- System: BDF1 mice, P388 leukemia ip, median survival T/C
- PROCEDURE_SUMMARY: NCI In Vivo Anticancer Drug Screen. Data for tumor model P388 Leukemia (intraperitoneal) in B6D2F1 (BDF1) mice
- EXPERIMENTAL_SETUP: endpoint: median survival time; dose: 4.0 mg/kg/injection; schedule: Q01DX009 (ip); vehicle: saline; higher = longer survival
Inconclusive results and toxic doses are left out.
OBSERVABLE: T/C

>>> print(df.to_string())
                                   compound                            assayed_target  observable    recorded_value
0  c1ccc2c[n+](CCCCCCCCCC[n+]3ccc4ccccc4c3)ccc2c1  BDF1 mice, P388 leukemia ip, median survival T/C         T/C  110 % of control
1  COC(C/C=C\C=C\CC/C=C/CC(C)/C=C/C(=C\C(=O)O)CC(=O)O)/C(C)=C\C=C(/C)C(=O)O (stereo unspecified)  BDF1 mice, P388 leukemia ip, median survival T/C         T/C   87 % of control
2                                   O=[As]O  BDF1 mice, P388 leukemia ip, median survival T/C         T/C  123 % of control
3  CC([NH-])C(=O)O.CC([NH-])C(=O)O.[Ni+2] (stereo unspecified)  BDF1 mice, P388 leukemia ip, median survival T/C         T/C  109 % of control
4  COc1cc(OC)c(C(=O)CCc2ccccc2)c(O)c1Cc1ccccc1O  BDF1 mice, P388 leukemia ip, median survival T/C         T/C  103 % of control
5   c1ccc(-c2csc3c4ccccc4c4ccccc4[n+]23)cc1  BDF1 mice, P388 leukemia ip, median survival T/C         T/C  113 % of control

###

Here, each record is paired with measured T/C data.
- Tested on: BDF1 mice, P388 leukemia ip, median survival T/C
- PROCEDURE_SUMMARY: NCI In Vivo Anticancer Drug Screen. Data for tumor model P388 Leukemia (intraperitoneal) in B6D2F1 (BDF1) mice
- EXPERIMENTAL_SETUP: endpoint: median survival time; dose: 50.0 mg/kg/injection; schedule: Q01DX009 (ip); vehicle: saline with Tween-80; higher = longer survival
Toxic doses and inconclusive results are not listed.
OBSERVABLE: T/C

                                    molecule    recorded_value
 0                           ClC(Cl)=C1OCCO1  104 % of control
 1  COc1cc2ccc3c(c2cc1OC)CN1CCc2cc4c(cc2C1C3)OCO4 (stereo unspecified)  120 % of control
 2            N#Cc1nc2c(n(O)c1=N)CCCCCCCCCC2   95 % of control
 3                  CCOC(=O)NCCCCCCNC(=O)OCC   95 % of control
 4                           O=C(Cl)C1CCCCC1  100 % of control
 5                  O=C(NC(=S)N1CC1)c1ccccc1   93 % of control
 6          O=C(CC(=O)C(F)(F)F)c1csc2ccccc12   91 % of control
 7  COc1ccc(C(O)(CS(C)(=O)=O)c2cccs2)cc1 (stereo unspecified)  110 % of control
 8  COC(=O)C1(C)N=C(Cc2ccccc2)OO1 (stereo unspecified)  110 % of control
 9  COc1cc([N+](=O)[O-])c(C)cc1Nc1ccc(OC)c(OC)c1  100 % of control
10               N#CN=CN1CCC(O)(c2ccccc2)CC1   88 % of control

###

- Tested on: BDF1 mice, P388 leukemia ip, median survival T/C
- PROCEDURE_SUMMARY: NCI In Vivo Anticancer Drug Screen. Data for tumor model P388 Leukemia (intraperitoneal) in B6D2F1 (BDF1) mice
- EXPERIMENTAL_SETUP: endpoint: median survival time; dose: 100.0 mg/kg/injection; schedule: Q04DX003 (ip); vehicle: Klucel (hydroxypropylcellulose) (HPC); higher = longer survival
- Method: The antitumor activity of compounds was measured in mice bearing transplantable tumors. Survival or tumor size were measured and the results are expressed as the measurement made in the treated group (T) divided by the measurement made in the vehicle treated control group (C). The tumor model used in this assay is P388 Leukemia (intraperitoneal) in B6D2F1 (BDF1) mice
Toxic doses and inconclusive results are not listed.
OBSERVABLE: T/C

                                   compound  observable    recorded_value
0  C#C[C@]1(O)CC[C@H]2[C@@H]3CCc4cc(O)ccc4[C@H]3CC[C@@]21C         T/C  104 % of control
1  COc1cc2ccc(C(C)NCC#N)cc2cc1OC (stereo not given)         T/C   95 % of control
2  O=C(Cc1ccc([N+](=O)[O-])cc1)c1ccc(O)cc1O         T/C   95 % of control
3  CSc1ncc2ncn(C3OC(CO)C(O)C3O)c2n1 (stereo not given)         T/C   95 % of control
4  C[C@H]1CC2=CC(=O)CC[C@]2(C)[C@H]2CC[C@@]3(C)[C@@H](CC[C@]3(C)O)[C@H]12         T/C  100 % of control

###

- Tested on: BDF1 mice, P388 leukemia ip, median survival T/C
- PROCEDURE_SUMMARY: NCI In Vivo Anticancer Drug Screen. Data for tumor model P388 Leukemia (intraperitoneal) in B6D2F1 (BDF1) mice
- EXPERIMENTAL_SETUP: endpoint: median survival time; dose: 3.12 mg/kg/injection; schedule: Q01DX009 (ip); vehicle: water
Inconclusive results and toxic doses are left out. How the source made its calls: active means survival T/C of 150% or more; inactive means T/C below 125% in these data.
Possible outcomes: t (active), f (inactive)

COMPOUND	CLASS_ASSIGNMENT
[NH-]C(CC(N)=O)C(=O)O.[NH-]C(CC(N)=O)C(=O)O.[Ni+2] (stereo not given)	f
Nc1nc(N)c2cc(N3CCCC3c3ccc(Cl)c(Cl)c3)ccc2n1 (stereo not given)	f
COc1cccc2c1C(=O)c1c(O)c3c(c(O)c1C2=O)C[C@@](O)(/C(C)=N/NC(=O)c1ccc(-c2ccccc2)cc1)C[C@@H]3OC1CC(N)C(O)C(C)O1 (stereo not given in full)	t
CC(C)=CCC/C(C)=C/CN1C(=O)C=CC1=O	f
COc1cc2c[n+](C)c3c4cc(OC)c(OC)cc4ccc3c2cc1OC	f

Reference source: PubChem BioAssay AID328
